Ok so here's the combined literature set: IC50 for MAP4K4 (Homo sapiens).

CCCS(=O)(=O)Nc1ccc(F)c(C(=O)c2c[nH]c3ncc(-c4ccc(O)nc4)cc23)c1F = ≤ 10 µM
Cc1cccc(C)c1NC(=O)c1ccc(-c2c(-c3ccc(F)cc3)ncn2C2CCCCC2)o1 = > 1 µM
O=C(c1c(F)ccc(NS(=O)(=O)C2CCCCC2)c1F)c1c[nH]c2nccc(Cl)c12 = ≤ 10 µM
COc1cc(Cc2c[nH]c3ncccc23)cc(OC)c1 = ≤ 10 µM
CS(=O)(=O)c1cccc(-c2cnc3[nH]cc(C(=O)c4cc(NS(=O)(=O)c5cccnc5)ccc4F)c3c2)c1 = ≤ 10 µM
COc1cnc2[nH]cc(C(=O)c3c(F)ccc(NS(=O)(=O)c4cc(F)ccc4F)c3F)c2c1 = ≤ 10 µM
COc1cnc2[nH]cc(C(=O)c3c(F)ccc(NS(=O)(=O)CCC(F)(F)F)c3F)c2c1 = ≤ 10 µM
Cn1cc(-c2cnc3[nH]cc(C(=O)c4c(F)ccc(NS(=O)(=O)c5cccc(OC(F)F)c5)c4Cl)c3c2)cn1 = ≤ 10 µM
O=c1nc[nH]c2ccc(-c3cccnc3-c3cccc(Cl)c3)cc12 = < 0.5 µM
O=C(Nc1ccc(F)c(F)c1)c1ccc(-c2c(-c3ccc(F)cc3)ncn2C2CCCC2)o1 = 0.639 µM

Q) Give MAP4K4 (Homo sapiens) IC50 for `CC(=O)c1ccc(NC(=O)c2ccc(-c3c(-c4ccc(F)cc4)ncn3C3CCCCC3)o2)cc1`
A) 0.126 µM

Q) Give MAP4K4 (Homo sapiens) IC50 for `Nc1ncnc2ccc(-c3cccnc3-c3cc(O)cc(F)c3)cc12`
A) < 0.5 µM

Q) Give MAP4K4 (Homo sapiens) IC50 for `COc1cnc2[nH]cc(C(=O)c3c(F)ccc(NS(=O)(=O)C4CCCCC4)c3F)c2c1`
A) ≤ 10 µM

Q) Give MAP4K4 (Homo sapiens) IC50 for `Cc1cccc(CNc2nc(Cl)c(Cc3c[nH]c4ncc(Cl)cc34)s2)n1`
A) < 1 µM

Q) Give MAP4K4 (Homo sapiens) IC50 for `COc1ccc(-c2cnc3[nH]cc(C#Cc4cccc(C(=O)O)c4)c3c2)cc1OC`
A) ≤ 10 µM

Q) Give MAP4K4 (Homo sapiens) IC50 for `Cc1ccc(NC(=O)c2ccc(-c3c(-c4ccc(F)cc4)ncn3C3CCCCC3)o2)cc1Cl`
A) > 1 µM

Q) Give MAP4K4 (Homo sapiens) IC50 for `Clc1cccc(-c2c[nH]c3ncccc23)c1`
A) ≤ 10 µM

Q) Give MAP4K4 (Homo sapiens) IC50 for `Fc1ccc(Cc2c[nH]c3ncccc23)cc1`
A) ≤ 10 µM
